Target chain: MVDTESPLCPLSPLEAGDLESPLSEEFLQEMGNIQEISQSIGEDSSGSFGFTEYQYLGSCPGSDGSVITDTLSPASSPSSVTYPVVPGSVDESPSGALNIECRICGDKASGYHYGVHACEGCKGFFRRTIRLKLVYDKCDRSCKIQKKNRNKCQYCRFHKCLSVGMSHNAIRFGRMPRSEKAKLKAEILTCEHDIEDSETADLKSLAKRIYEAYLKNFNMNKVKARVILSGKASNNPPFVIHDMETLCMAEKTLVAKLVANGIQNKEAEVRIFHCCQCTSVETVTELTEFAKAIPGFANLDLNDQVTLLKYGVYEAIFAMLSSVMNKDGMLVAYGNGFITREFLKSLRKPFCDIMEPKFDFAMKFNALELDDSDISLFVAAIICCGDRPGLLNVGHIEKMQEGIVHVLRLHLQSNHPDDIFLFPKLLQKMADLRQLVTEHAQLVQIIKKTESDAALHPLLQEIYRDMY
Reported Property: Kd
Field: value (include unit after the number)

Guide cases for Kd, answers given:
CC/C=C\C/C=C\C/C=C\C/C=C\C/C=C\C/C=C\CCC(=O)O [DHA, docosahexaenoic acid] | 14.3 µM
CCCCC/C=C\C/C=C\CCCCCCCC(=O)O [LCA, 9,12-linoleic acid] | 23.8 µM

Attention now turns to another entry.
I am curious: what Kd value has been reported for CCCCC/C=C\C/C=C\C/C=C\C/C=C\CCCC(=O)O [AA, arachidonic acid] ? 16.1 µM
